Below: a set of entries, each annotated with reported Thermal decomposition temperature.
ASSAY_SUMMARY: Thermal decomposition temperature (TG/DTA, 2% weight reduction)
Assay type: physicochemical
PARTICULARS: point of 2% weight reduction; 10° C./minute from 30° C. to 500° C.; nitrogen atmosphere
Just the number in °C, nothing appended.

Would you please look over these solved cases?
[
  {
    "MOLECULE": "O=C1c2cc(C34CC5CC(CC(C5)C3)C4)cc3cc(C45CC6CC(CC(C6)C4)C5)cc(c23)C(=O)N1OS(=O)(=O)c1c(F)c(F)c(F)c(F)c1F [Example A-35]",
    "Thermal decomposition temperature [°C]": 251
  },
  {
    "MOLECULE": "CCCOc1ccc2c3c(cccc13)C(=O)N(OS(=O)(=O)c1c(F)c(F)c(F)c(F)c1F)C2=O [Example A-22]",
    "Thermal decomposition temperature [°C]": 240
  },
  {
    "MOLECULE": "CC1(C)C2CC[C@@]1(CS(=O)(=O)ON1C(=O)c3cc(C45CC6CC(CC(C6)C4)C5)cc4cc(C56CC7CC(CC(C7)C5)C6)cc(c34)C1=O)C(=O)C2 [Example A-55]",
    "Thermal decomposition temperature [°C]": 253
  },
  {
    "MOLECULE": "O=C1c2cccc3c(OCC(F)(F)C(F)F)ccc(c23)C(=O)N1OS(=O)(=O)C(F)(F)F [Example A-3]",
    "Thermal decomposition temperature [°C]": 230
  }
]

Here's the next entry for you.
Request: Give the measured Thermal decomposition temperature of CC1(C)C2CCC1(CS(=O)(=O)ON1C(=O)c3cccc4c(C(F)(F)C(F)(F)C(F)(F)C(F)(F)F)ccc(c34)C1=O)C(=O)C2 (centres unmarked) [Example A-56] .
Result: 241

====

ASSAY_SUMMARY: Solvent solubility (butyl acetate, toluene or PGMEA)
Format: physicochemical
PARTICULARS: butyl acetate, 25° C.
MEASUREMENT_LABEL: Solvent solubility Butyl acetate (wt %)
Just the number in wt %, nothing appended.

Would you please look over these solved cases?
[
  {
    "COMPOUND": "O=C1c2cccc3c(OCC(F)(F)C(F)F)ccc(c23)C(=O)N1OS(=O)(=O)C(F)(F)F",
    "Solvent solubility Butyl acetate [wt %]": 6
  },
  {
    "COMPOUND": "CC(C)(C)c1cc2c3c(cc(C(C)(C)C)cc3c1)C(=O)N(OS(=O)(=O)CC13CCC(CC1=O)C3(C)C)C2=O (centres unmarked)",
    "Solvent solubility Butyl acetate [wt %]": 2
  },
  {
    "COMPOUND": "O=C1c2cccc3c(Oc4c(F)c(F)c(F)c(F)c4F)ccc(c23)C(=O)N1OS(=O)(=O)C(F)(F)F",
    "Solvent solubility Butyl acetate [wt %]": 17
  },
  {
    "COMPOUND": "CC(C)(C)c1cc2c3c(cc(C(C)(C)C)cc3c1)C(=O)N(OS(=O)(=O)C(F)(F)F)C2=O",
    "Solvent solubility Butyl acetate [wt %]": 8
  }
]

Request: Give the measured Solvent solubility Butyl acetate of "O=C1c2cccc3c(Br)ccc(c23)C(=O)N1OS(=O)(=O)c1c(F)c(F)c(F)c(F)c1F" .
Result: 3

Request: Consider next the compound "COc1cc2c3c(cccc3c1)C(=O)N(OS(=O)(=O)C(F)(F)F)C2=O" in the same way.
Result: 8

Request: Consider next the compound "CC(C)Oc1ccc2c3c(cccc13)C(=O)N(OS(=O)(=O)C(F)(F)F)C2=O" in the same way.
Result: 8.5

Request: Consider next the compound CC1(C)C2CCC1(CS(=O)(=O)ON1C(=O)c3cccc4c(Cl)ccc(c34)C1=O)C(=O)C2 (centres unmarked) in the same way.
Result: 1.5

Request: Consider next the compound "COc1cc2c3c(cccc3c1)C(=O)N(OS(=O)(=O)c1c(F)c(F)c(F)c(F)c1F)C2=O" in the same way.
Result: 6.5

Request: Consider next the compound "O=C(Oc1cc2c3c(cccc3c1)C(=O)N(OS(=O)(=O)C(F)(F)F)C2=O)c1ccccc1" in the same way.
Result: 25

Request: Consider next the compound "O=C1c2cccc3c(C(F)(F)C(F)(F)C(F)(F)C(F)(F)F)ccc(c23)C(=O)N1OS(=O)(=O)C(F)(F)F" in the same way.
Result: 25
